Cited source: paper PMC5540273

# System: CSNK1A1L
# conditions: concentration: 1 μM, replicates: in singlicate; n = 1;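 also: KINOMEscan kinase panel screen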
value-kind: %Inh (%)
Numbers only, in %.

Worked set:
{"columns": ["compound", "%Inh (%)"],
 "data": [
  ["Cl.Cl.c1ccc(-c2cc3ccncc3cc2OC2CCNCC2)cc1", 23],
  ["Cn1ccc2ncnc(Nc3ccc(Oc4cccc(Cl)c4)c(Cl)c3)c21", 16],
  ["CSc1nn2c(=O)cc(N3CCOCC3)nc2n1Cc1cccc(Cl)c1Cl", 32],
  ["CCCc1ccc(S(=O)(=O)NC2CCN(c3ccnc(Nc4ccc(OC)cc4)n3)C2)cc1 (centres unmarked)", 7]
]}

Give me %Inh for each of these compounds, listed below.
1. Clc1ccc(-c2cc(-c3c[nH]nc3-c3ccccn3)ccn2)cc1
2. CNc1nccc(-c2c(-c3ccc(F)cc3)ncn2C2CCN(C)CC2)n1
3. Cc1ccc(C)c(NC(=O)NCCNc2ccnc(Nc3ccc(F)cc3)n2)c1
4. Cl.c1ccc(Cn2ncc3cc(Nc4ncnc5ccccc45)ccc32)cc1
5. Nc1nc(-c2ccc3c(N)n[nH]c3c2)cc(N2CCCCC2)n1
6. Cl.c1ccc(Cn2ccc3cc(Nc4ncnc5ccccc45)ccc32)cc1
7. Nc1nc(-c2ccc3c(N)n[nH]c3c2)cc(N2CCC[C@@H](C(=O)Nc3ccccc3)C2)n1.O=C(O)C(F)(F)F.O=C(O)C(F)(F)F
8. Cn1ccc2ncnc(Oc3ccc(NC(=O)Nc4cccnc4)c(Cl)c3)c21

output:
[1, 38, 0, 12, 1, 0, 0, 10]

###

# Test system: ASK2
# Construct: gene MAP3K6
# conditions: concentration: 1 μM, replicates: in singlicate; n = 1
Task for the reader: assign each of the following compounds its reported %Inh.
One number for each entry, in %.

{"columns": ["chemical-string", "%Inh [%]"],
 "data": [
  ["O=C(CCO)NCCn1ccc2ncnc(Nc3ccc(Oc4cccc(C(F)(F)F)c4)c(Cl)c3)c21", 0],
  ["Cl.c1ccc(Cn2ccc3cc(Nc4ncnc5ccccc45)ccc32)cc1", 0],
  ["C[C@H]1CC[C@@H](C(=O)Nc2ccccc2)CN1c1cc(-c2ccc3c(N)n[nH]c3c2)nc(N)n1", 5]
]}

Give me %Inh for each of these compounds, listed below.
1. CCC(CC)(CC)n1cnc2c(N)ncnc21
2. N#Cc1ccc(Oc2ccc(Nc3ncnc4cc[nH]c34)cc2Cl)cc1
3. OCCOCCn1ccc2ncnc(Nc3ccc(Oc4cccc(Cl)c4)c(Cl)c3)c21

output:
26
0
0

###

Task for the reader: assign each of the following compounds its reported %Inh.
# Test system: VRK2
# conditions: concentration: 1 μM, replicates: in singlicate; n = 1
Numbers only, in %.

Worked set:
{"columns": ["compound", "value-kind", "readout-units", "endpoint-value"],
 "data": [
  ["CS(=O)(=O)CCNCc1nc(-c2ccc3ncnc(Nc4ccc(OCc5cccc(F)c5)c(Cl)c4)c3c2)cs1.Cl", "%Inh", "%", 0],
  ["CC(=O)Nc1n[nH]c2ncc(-c3ccccc3)cc12", "%Inh", "%", 0],
  ["Fc1ccc(Nc2nccc(-c3c(-c4ccc(Cl)cc4)nn4ncccc34)n2)cc1F", "%Inh", "%", 34]
]}

Give me %Inh for each of these compounds, listed below.
1. COc1ccc(-c2oc3ncnc(N)c3c2-c2ccc(OC)cc2)cc1
2. N#Cc1ccc(Oc2ccc(Nc3ncnc4cc[nH]c34)cc2Cl)cc1
3. O=C(Nc1ccccc1F)NC1CCN(c2ccnc(Nc3ccc(F)cc3)n2)C1 (centres unmarked)
4. FC(F)(F)c1ccc(-c2cc(-c3c[nH]nc3-c3ccccn3)ccn2)cc1
5. Cc1ccc(NC(=O)c2cccc(C#N)c2)cc1-c1ccc(C(=O)Nc2ccncc2)cc1

output:
1: 56; 2: 3; 3: 16; 4: 0; 5: 0

Give me %Inh for each of these compounds, listed below.
1. Nc1nc(-c2ccc3c(N)n[nH]c3c2)cc(N2CCC[C@@H](C(=O)Nc3ccccc3)C2)n1.O=C(O)C(F)(F)F.O=C(O)C(F)(F)F
2. Cl.O=S(=O)(c1cccc(F)c1)c1ccc(Nc2ncnc3cc(Br)sc23)cc1Cl
3. C[C@H]1CC[C@@H](C(=O)Nc2ccccc2)CN1c1cc(-c2ccc3c(N)n[nH]c3c2)nc(N)n1
4. CSc1nn2c(=O)cc(N3CCOCC3)nc2n1Cc1cccc(Cl)c1Cl
5. O=c1cc(N2CCOCC2)nc2n(Cc3cccc(Cl)c3)ccn12
6. Cl.Fc1ccccc1COc1ccc(Nc2ncnc3ccc(-c4nnc(C(F)(F)F)o4)cc23)cc1Cl

output:
1: 0; 2: 0; 3: 19; 4: 0; 5: 2; 6: 0
